- target entity: SARS-COV-2 3CLpro/Mpro protease (Severe acute respiratory syndrome coronavirus 2 (2019-nCoV) (SARS-CoV-2))
- test method notes: Inhibitory effect on SARS-COV-2 3CLpro/Mpro protease by fluorescence resonance energy transfer
- Format: biochemical
- conditions used: activity intervals A-D, read-out: IC50 (nM), Inhibition on SARS-CoV-2 3CLpro/Mpro protease
assay readout: IC50

{"compound": "O=C(c1cc(Br)cc([N+](=O)[O-])c1N[C@@H]1CCCN(C(=O)c2cnnc3ccccc23)C1)N1CCCCC1 [Example 56]", "assay readout": "IC50", "value measured": "10 to 50 nM"}
{"compound": "COCCN1CCN(C(=O)c2cc(Br)cc([N+](=O)[O-])c2N[C@@H]2CCCC[C@@H]2NC(=O)c2cncc3cc(Cl)ccc23)CC1 [Example 111]", "assay readout": "IC50", "value measured": "< 10 nM"}
{"compound": "CNc1cncc(C(=O)N2C[C@H](Nc3c(C(=O)N4C[C@H](C)O[C@@H](C)C4)cc(Br)cc3[N+](=O)[O-])C(C)(C)C2)c1 [Example 189]", "assay readout": "IC50", "value measured": "10 to 50 nM"}
{"compound": "CO[C@H]1CN(C(=O)c2cncc3[nH]c(C)nc23)C[C@@H]1Nc1c(C(=O)N2C[C@@H](C)O[C@@H](C)C2)cc(Br)cc1[N+](=O)[O-] [Example 449]", "assay readout": "IC50", "value measured": "50 to 100 nM"}
{"compound": "CNc1cncc(C(=O)N2C[C@H](Nc3c(C(=O)N4C[C@@H](C)O[C@@H](C)C4)cc(Br)cc3[N+](=O)[O-])C[C@H]2C(=O)Nc2cc(Cl)ncn2)c1 [Example 441]", "assay readout": "IC50", "value measured": "10 to 50 nM"}
{"compound": "O=C(c1cncc(I)c1)N1CC(Nc2c(C(=O)N3CCOCC3)cc(Br)cc2[N+](=O)[O-])C(F)(F)C1 (stereo not shown) [Example 167]", "assay readout": "IC50", "value measured": "10 to 50 nM"}
{"compound": "C[C@@H]1CN(C(=O)c2cc(Br)cc([N+](=O)[O-])c2N[C@@H]2CCCN(C(=O)[C@H]3CNCC(F)(F)C3)C2)C[C@H](C)O1 [Example 325]", "assay readout": "IC50", "value measured": "10 to 50 nM"}
{"compound": "CNc1cncc(C(=O)N2C[C@H](Nc3c(C(=O)N4C[C@@H](C)O[C@@H](C)C4)cc(Br)cc3[N+](=O)[O-])CC2C(=O)Nc2cc(Cl)n(C)n2)c1 (stereo partly shown) [Example 407]", "assay readout": "IC50", "value measured": "50 to 100 nM"}
{"compound": "O=C(c1cncc(C2CC2)c1)N1CCC[C@@H](Nc2c(C(=O)N3CCCCC3)cc(Br)cc2[N+](=O)[O-])C1 [Example 45]", "assay readout": "IC50", "value measured": "10 to 50 nM"}
{"compound": "O=C(c1cc(Br)cc([N+](=O)[O-])c1N[C@@H]1CCCN(C(=O)c2cncc3ccccc23)C1)N1CCCC1 [Example 39]", "assay readout": "IC50", "value measured": "< 10 nM"}
{"compound": "CNc1cncc(C(=O)N2C[C@H](Nc3c(C(=O)N4CCCC(F)(F)C4)cc(Br)cc3[N+](=O)[O-])[C@@H](OC)C2)c1 [Example 374]", "assay readout": "IC50", "value measured": "10 to 50 nM"}
{"compound": "CNc1cncc(C(=O)N2C[C@H](Nc3c(C(=O)N4C[C@@H](C)O[C@@H](C)C4)cc(Br)cc3[N+](=O)[O-])[C@@H](OCc3cncn3C)C2)c1 [Example 462]", "assay readout": "IC50", "value measured": "10 to 50 nM"}
{"compound": "[2H]C1([2H])CN(C(=O)c2cc(Br)cc([N+](=O)[O-])c2N[C@@H]2CCCN(C(=O)c3cncc(NC)c3)C2)CC([2H])([2H])O1 [Example 353]", "assay readout": "IC50", "value measured": "10 to 50 nM"}
{"compound": "CNc1cncc(C(=O)N2CCC[C@@H](Nc3c(C(=O)N4CCOC5CC54)cc(Br)cc3[N+](=O)[O-])C2)c1 (stereo partly shown) [Example 294]", "assay readout": "IC50", "value measured": "10 to 50 nM"}
{"compound": "CNc1cncc(C(=O)N2CCC[C@@H](Nc3c(C(=O)N4CCC(F)(F)CC4)cc(Br)cc3[N+](=O)[O-])C2)c1 [Example 279]", "assay readout": "IC50", "value measured": "10 to 50 nM"}
{"compound": "CNc1cncc(C(=O)N2CCC[C@@H](Nc3c(C(=O)N4C[C@H](C)O[C@@H](C)C4)cc(Br)cc3[N+](=O)[O-])C2)c1 [Example 213]", "assay readout": "IC50", "value measured": "10 to 50 nM"}
{"compound": "CNc1cncc(C(=O)N2CC(Nc3c(C(=O)N4C[C@H](C)C[C@H](C)C4)cc(Br)cc3[N+](=O)[O-])C(C)(C)C2)c1 (stereo partly shown) [Example 180]", "assay readout": "IC50", "value measured": "50 to 100 nM"}
{"compound": "CNc1cncc(C(=O)N2C[C@H](Nc3c(C(=O)N4C[C@@H](C)O[C@@H](C)C4)cc(Br)cc3[N+](=O)[O-])[C@@H](OCc3ncco3)C2)c1 [Example 460]", "assay readout": "IC50", "value measured": "10 to 50 nM"}
{"compound": "CNc1cncc(C(=O)N2C[C@H](Nc3c(C(=O)N4C[C@@H](C)O[C@H](C)C4)cc(Br)cc3[N+](=O)[O-])C(F)(F)C2)c1 [Example 199]", "assay readout": "IC50", "value measured": "50 to 100 nM"}
{"compound": "O=C(N[C@H]1CCCC[C@H]1Nc1c(C(=O)N2CCOCC2)cc(Br)cc1[N+](=O)[O-])c1cc(=O)[nH]c2ccccc12 [Example 107]", "assay readout": "IC50", "value measured": "10 to 50 nM"}
{"compound": "CNc1cncc(C(=O)N2CCC[C@@H](Nc3c(C(=O)N4CCO[C@@H](C)C4)cc(Br)cc3[N+](=O)[O-])C2)c1 [Example 219]", "assay readout": "IC50", "value measured": "10 to 50 nM"}
{"compound": "CNc1cncc(C(=O)N[C@H]2CCOC[C@H]2Nc2c(C(=O)N3CCC[C@H](C)C3)cc(Br)cc2[N+](=O)[O-])c1 [Example 234]", "assay readout": "IC50", "value measured": "10 to 50 nM"}
{"compound": "O=C(c1cc(Br)cc([N+](=O)[O-])c1N[C@@H]1CCCN(C(=O)C2CNCc3ccccc32)C1)N1CCOCC1 (stereo partly shown) [Example 142]", "assay readout": "IC50", "value measured": "10 to 50 nM"}
{"compound": "CNc1cncc(C(=O)N2CCC[C@@H](Nc3c(C(=O)N4CCOCC4)cc(Br)cc3[N+](=O)[O-])C2)c1 [Example 200]", "assay readout": "IC50", "value measured": "10 to 50 nM"}
{"compound": "CNc1cncc(C(=O)N[C@H]2CCCC[C@H]2Nc2c(C(=O)N3CCCCC3)cc(Br)cc2[N+](=O)[O-])c1 [Example 196]", "assay readout": "IC50", "value measured": "10 to 50 nM"}

----------
Each entry below carries its reported IC50.
- target entity: SARS-COV-2 3CLpro/Mpro protease (Severe acute respiratory syndrome coronavirus 2 (2019-nCoV) (SARS-CoV-2))
- test method notes: Inhibitory effect on SARS-COV-2 3CLpro/Mpro protease by fluorescence resonance energy transfer
- Format: biochemical
- conditions used: activity intervals A-D, read-out: IC50 (nM), Inhibition on SARS-CoV-2 3CLpro/Mpro protease

{"compound": "CNc1cncc(C(=O)N2C[C@H](Nc3c(C(=O)N4CCN(CC(F)(F)F)C(=O)C4)cc(Br)cc3[N+](=O)[O-])C3(CC3)C2)c1", "IC50": "10 to 50 nM"}
{"compound": "CNc1cncc(C(=O)N2C[C@H](Nc3c(C(=O)N4C[C@@H](C)O[C@@H](C)C4)cc(Br)cc3[N+](=O)[O-])C[C@H]2C(=O)NC2CNC(=O)C2)c1 (stereo partly drawn) [Example 378]", "IC50": "10 to 50 nM"}
{"compound": "CNc1cncc(C(=O)N2C[C@H](Nc3c(C(=O)N4C[C@@H](C)O[C@@H](C)C4)cc(Br)cc3[N+](=O)[O-])C[C@H]2COC)c1", "IC50": "50 to 100 nM"}
{"compound": "O=C(c1cncc(I)c1)N1C[C@H](Nc2c(C(=O)N3CCC(F)(F)CC3)cc(Br)cc2[N+](=O)[O-])C(F)(F)C1", "IC50": "10 to 50 nM"}
{"compound": "CNc1cncc(C(=O)N2CCC[C@@H](Nc3c(C(=O)N4CCC5(CC4)COC(C)(C)C5)cc(Br)cc3[N+](=O)[O-])C2)c1", "IC50": "10 to 50 nM"}
{"compound": "CNc1cncc(C(=O)N2C[C@H](Nc3c(C(=O)N4C[C@@H](C)O[C@@H](C)C4)cc(Br)cc3[N+](=O)[O-])C[C@H]2C(=O)Nc2nn(CC(F)(F)F)cc2Br)c1", "IC50": "50 to 100 nM"}
